assayedSystem: D189Q mutant hMC4R, N-terminal FLAG-tagged (human, UniProt P32245 1-332, D189Q)
Sequence (P32245 whole entry D189Q): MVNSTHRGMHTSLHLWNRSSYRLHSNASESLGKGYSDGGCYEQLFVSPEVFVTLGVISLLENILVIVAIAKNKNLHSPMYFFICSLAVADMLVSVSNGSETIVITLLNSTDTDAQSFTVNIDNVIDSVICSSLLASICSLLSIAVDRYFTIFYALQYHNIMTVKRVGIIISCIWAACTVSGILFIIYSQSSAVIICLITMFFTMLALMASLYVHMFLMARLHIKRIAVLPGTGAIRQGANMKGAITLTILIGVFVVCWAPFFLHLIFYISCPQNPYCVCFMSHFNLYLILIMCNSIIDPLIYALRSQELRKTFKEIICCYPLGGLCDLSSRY
assayMethodText: radioligand binding
measurementKind: IC50 (nM)
Reply with just the number (in nM).

Identify measured IC50 corresponding to RCVRLHESCLGQQVPCCDPCATCYCRFFNAFCYCRKLGTAMNPCSRT (domain or fragment, UniProt O00253 86-132, looked up) [human agouti-related protein hAGRP(86–132)]
10
